target-or-test-system: human HSD1 (recombinant HSD1) (Homo sapiens, UniProt P28845)
Sequence (P28845 whole entry): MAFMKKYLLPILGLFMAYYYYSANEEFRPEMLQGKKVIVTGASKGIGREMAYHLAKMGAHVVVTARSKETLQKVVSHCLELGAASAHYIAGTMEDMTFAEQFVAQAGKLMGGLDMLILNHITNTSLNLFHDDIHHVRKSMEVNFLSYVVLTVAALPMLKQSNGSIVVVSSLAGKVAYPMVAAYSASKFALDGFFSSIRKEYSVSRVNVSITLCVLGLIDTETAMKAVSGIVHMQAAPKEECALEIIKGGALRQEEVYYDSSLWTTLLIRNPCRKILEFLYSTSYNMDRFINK
assay-remarks: In vitro HSD1 activity inhibitory action (SPA, conversion of cortisone to cortisol)
conditions: recombinant human HSD1 expressed in baculo-virus system, 16 nM 3H cortisone, 500 μM NADPH, room temperature, 90 min
pIC50: −log10 of the molar value.
Measured pIC50, listed per entry.

{"chemical-structure": "Cc1c(CCc2ccccc2Cl)n[nH]c1-c1ccc(Cl)cc1Cl", "pIC50": "> 8.00"}
{"chemical-structure": "CC(C)c1c(-c2ccccc2)n[nH]c1C1(c2ccc(F)cc2)CC1", "pIC50": "> 8.00"}
{"chemical-structure": "OCc1c(-c2ccc(Cl)cc2Cl)n[nH]c1Cc1ccc(F)cc1", "pIC50": "6.00 to 8.00"}

**Query** Checklist item: pIC50 tested on human HSD1 (recombinant HSD1) (Homo sapiens, UniProt P28845), entry Cc1c(-c2ccc(Cl)cc2Cl)n[nH]c1Cc1ccc(F)cc1 , value?
**Result** 6.00 to 8.00

**Query** Checklist item: pIC50 tested on human HSD1 (recombinant HSD1) (Homo sapiens, UniProt P28845), entry Cc1c(C2(c3ccc(F)cc3)CC2)n[nH]c1C1(c2ccc(F)cc2)CC1 , value?
**Result** > 8.00

###

target-or-test-system: human HSD1 (recombinant HSD1) (Homo sapiens)
assay-remarks: In vitro HSD1 activity inhibitory action (SPA, conversion of cortisone to cortisol)
conditions: recombinant human HSD1 expressed in baculo-virus system, 16 nM 3H cortisone, 500 μM NADPH, room temperature, 90 min
Measured IC50, listed per entry.

{"chemical-structure": "Cc1c(-c2ccc(Cl)cc2Cl)n[nH]c1C1(c2ccccc2)CC1", "IC50": "< 10 nM"}

**Query** Tell me the measured IC50 of Cc1c(-c2ccc(N3CCOC3=O)cc2Cl)n[nH]c1C1(c2ccccc2)CC1 , please.
**Result** 10 to 1000 nM

**Query** Tell me the measured IC50 of Cc1c(C2CCN(c3ncccc3Cl)CC2)n[nH]c1C1(c2ccccc2)CC1 , please.
**Result** < 10 nM

**Query** Tell me the measured IC50 of Cc1c(-c2ccccn2)n[nH]c1C1(c2ccc(F)cc2)CC1 , please.
**Result** < 10 nM

**Query** Tell me the measured IC50 of CCOC(=O)c1c(-c2ccc(Cl)cc2Cl)n[nH]c1C1(c2ccccc2)CC1 , please.
**Result** 10 to 1000 nM

**Query** Tell me the measured IC50 of Clc1ccc(-c2cc(C3(c4ccccc4)CC3)[nH]n2)c(Cl)c1 , please.
**Result** 10 to 1000 nM

**Query** Tell me the measured IC50 of Cc1c(-c2ccccc2)n[nH]c1C1(c2ccc(F)cc2)CC1 , please.
**Result** < 10 nM

**Query** Tell me the measured IC50 of Cc1c(C2CCN(c3c(Cl)cncc3Cl)CC2)n[nH]c1C1(c2ccccc2)CC1 , please.
**Result** 10 to 1000 nM

**Query** Tell me the measured IC50 of Clc1ccc(-c2cc(CCc3ccccc3Cl)n[nH]2)c(Cl)c1 , please.
**Result** 10 to 1000 nM
